- test_summary: soluble fraction after stress (log2 fold change); higher = more stays soluble; pooled small domains, quantitative proteomics
- study_conditions: stress: 50 degC
parameter: soluble fraction (log2)
Respond numerically, and do not add a unit to the figure.

HMTKSSAYLSAEKLINKKQYSDAIVKLNDALVTDSKNADIYNYLGFSHRKLGKMEDAAFFYNKALE; 0.219

Please look up its soluble fraction (log2): "HMKITLAESVYERIRRDIITNQLKPGEKINIRELSTRYEASETPIRLALNRLASENIIEHFPRQGMRVK"
-0.371

====

- test_summary: soluble fraction after stress (log2 fold change); higher = more stays soluble; pooled small domains, quantitative proteomics
- study_conditions: stress: 50 degC
Each entry below lists one item and its recorded soluble fraction (log2) value.
Respond with the number and no other words.

Here's what some known entries look like.
HMKKRDAEIMLQREFKLTEAIAMVRDRDIQELLPIALYFKVNINQPTAEIRYNLLNIAKSKTQEFIEAFD; -1.96
HMSDTLPRLLWNFQMAKRLDEMNGAEKRRYQLVLIHPQASEKERDYASSFAHQARMLGIEVAIRDS; -0.345
HMGTLPSLAPSGEKTVRLPNLAGWSLRETMEILQKGGLQLLPIGSGISFKQSPPPGTTLNEGDAVTVWF; 0.0292
HMNMENIADKIGKIYESLPEDLKLMIKYRDIDDLTYDEIAVKADLPVGTVRSRLHRAREQLLKELEKN; -0.143
HMAPEKLVHELVGLSLRAGNLDLLAATLSAHKTVLSKESTAEYVKAGLAIEPNHLPLRVLAEQDLGWS; -0.57

May I ask what soluble fraction (log2) has been recorded for "HMAETLLWADAAQEGLNRIVAAQPILVRISAAKRLRDASEQAAKAAGVSTVEIGHVQHASESLQFGDA" ?
0.165

For the sequence "HMSEYIFGKNVVKEAFNNPSRIEEIYVLDKNMEFVSLAKKYHIKYTVITSSEMNKMVSGNHQGVVALVK" , what soluble fraction (log2) is on record?
-0.277

Dear colleague, I am looking for the recorded soluble fraction (log2) of the following sequence: "HMDLKSLEFAIVENVQRHDLNPLEEAQGYKRLIDEFSYDQDKVSKFIGKSRSYITNSLRLLNLPLEVLEF"
-0.049

Entry under review: "HMSVSEAELAEKYHADDLEALKSGKLHEFQENLIDRNGKKYTVQTMKDILTLSDGTRLLLGIGLD" . Reported soluble fraction (log2)?
0.174

If you can, please state the reported soluble fraction (log2) value of "HMDSVPEEQLRQLALDKAKEVKRWGQPVELAKMNAHDRRIIHINLQDDPEIETRSEGEGALKSVIISLKK" .
0.172

Look up soluble fraction (log2): "HMLDLSDFEVVRDLYLSEQIWNVGDLIIARSKKDDTYKAWEIIRKGTNYVTGIDESHKVEKIWLHDILI"
-1.4

Recorded soluble fraction (log2) of "HMFEARNTTFSEDGKTITETYGVKRIETEFVSDSTIVQKLYDNDVLTKTKTITFSADGLSIKEDV" , please.
0.0154

So what does the record say about soluble fraction (log2) for "HMTDLNDTQIKILELLSADASLSAAKMAGQLGIAGRNVEANIKKLKEKGILIRHGSPKSGYWEIVN" ?
-0.0982

Query (sequence): "HMLRVGASVTANGKYWYDSYGSKPFGTANNLSTTVTRIVPGNPYPIHIGSYGWLQESQIQIT" ; field requested: soluble fraction (log2)
-1.03

Record request: soluble fraction (log2) value, item "HMDDPISSMVNRIRLAFGLSVTDLAAVLGVERPTIYSWLKDGSTPAPARLTRVRQVLSLADTW"
-0.194

Form field: reported soluble fraction (log2) of "HMAAQLAHVPAVTGRPLAEAQRILADNRLNAQVTQQPVAEPKLDGVVIAQKITEGTRTMRGATVPLIVGKY"
0.128

// lookup soluble fraction (log2) for "HMKSAIKQNILLYLSNKGVTSYEFYKISGVTRGILQQSNGISEDNIAKFLAYAPDVNIEWLLTGKGDMLKH"
-1.32

# input sequence: "HMISLNEDQKLAILNEWNQRPDDPPFIKELIELVFPDIPEEAKTGRSRYGIAIKKFLAEKSLQAKV" ; wanted: its soluble fraction (log2)
-0.305

Dear colleague, I am looking for the recorded soluble fraction (log2) of the following sequence: "HMDSVFGVVTSSDGVKLRKEASTISKVLTVLPYGTEVDVDRIGSEWIRIVTDGGQKGYVSADYLAVREGER"
0.206

Data request, read-out soluble fraction (log2), for "HMRDSYEVEGRIASVSPAAGTFVVAGVTVDYTGARFVGGTVAQLAPGVKVEVEGRRLANGTLQAREIEFD"
0.00935

Reported soluble fraction (log2), sequence "HMQARSQQTIQTLFKAAAQILDKEGEAGLSTNKVAAAAGFSIGTLYQYFPSKEVLIQAMAAR" : ____
-0.0788

Need soluble fraction (log2), item "HMNFAERIKELRKEKGITQIDLAEAVGLSKGTVAMWEVDKREANFDTLNKLSDYFQVSIDYLLGRSNDRS"
0.0272

Bench note: what soluble fraction (log2) did "HMPIDQAKRKKEIIQNFGIRKIYKFSEIFDLKFGRDNIIVTFLIILDMIKEGVVEINENKEEIEFEYK" show?
-0.166

Could you tell me which soluble fraction (log2) is on file for "HMVNYKEILRLSAEGNSQRQIAAGSGNSRNTVIEVLEAARARGITWPLDEPVTNEQLEAILFPNRY" ?
0.134

Name the reported soluble fraction (log2) value associated with the sequence "HMGGLAEGTKITLQNTVNVRASMGEDAEKIGTAYAGEKVTVIMSYAEGWTKVTWNDKTGYIKTSLL"
-0.634
